target: TACR3 (Homo sapiens); construct: purchased Promega (in-house HiBiT-GPCR construct library, NanoBRET); assay: NanoBRET screen HiBiT-TACR3 in HEK293; assay type: binding; conditions: TACR3; tracer 0.1μM
Sequence (P29371 whole entry): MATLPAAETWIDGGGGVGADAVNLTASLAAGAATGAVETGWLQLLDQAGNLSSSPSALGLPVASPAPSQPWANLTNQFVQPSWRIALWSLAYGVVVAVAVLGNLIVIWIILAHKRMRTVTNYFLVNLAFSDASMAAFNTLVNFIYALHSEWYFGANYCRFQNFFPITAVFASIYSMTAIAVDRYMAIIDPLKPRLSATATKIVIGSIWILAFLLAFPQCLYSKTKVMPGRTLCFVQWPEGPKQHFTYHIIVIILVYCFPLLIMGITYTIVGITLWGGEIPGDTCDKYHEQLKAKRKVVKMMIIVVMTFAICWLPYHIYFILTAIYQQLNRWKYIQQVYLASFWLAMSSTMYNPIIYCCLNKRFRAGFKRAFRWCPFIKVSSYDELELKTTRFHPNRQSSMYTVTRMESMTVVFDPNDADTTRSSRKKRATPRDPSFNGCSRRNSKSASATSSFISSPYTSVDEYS
Quick reference: NanoBRET Fold Response of the listed items.
Metric Name: NanoBRET Fold Response

Molecule	Target Of Assay	Result
Cc1nc2n(c(=O)c1CCN1CCC(c3noc4cc(F)ccc34)CC1)CCCC2OC(=O)NCCOCCOCCOCCOCCNC(=O)CCc1ccc2n1[B-](F)(F)[N+]1=C(c3ccc[nH]3)C=CC1=C2 (centres unmarked)	TACR3 (Homo sapiens)	1.04
COc1ccccc1N1CCN(CCCCN2C(=O)c3ccc(CNC(=O)CCOCCNC(=O)c4ccc(CNC(=O)CCc5ccc6n5[B-](F)(F)[N+]5=C(c7ccc[nH]7)C=CC5=C6)cc4)cc3C2=O)CC1	TACR3 (Homo sapiens)	0.97
O=C(CCc1ccc2n1[B-](F)(F)[N+]1=C(c3ccc[nH]3)C=CC1=C2)NCCOCCOCCNC(=O)OCCOCCN1CCN(C2=Nc3ccccc3Sc3ccccc32)CC1	TACR3 (Homo sapiens)	1.04
CCCn1c(=O)c2[nH]c(-c3ccc(OCC(=O)NCCNC(=O)CCOCCNC(=O)c4ccc(CNC(=O)CCc5ccc6n5[B-](F)(F)[N+]5=C(c7ccc[nH]7)C=CC5=C6)cc4)cc3)nc2n(CCC)c1=O	TACR3 (Homo sapiens)	1.06
Cc1cc2c(s1)Nc1ccccc1N=C2N1CCN(CCCNC(=O)CCOCCOCCOCCOCCNC(=O)CCc2ccc3n2[B-](F)(F)[N+]2=C(c4ccc[nH]4)C=CC2=C3)CC1	TACR3 (Homo sapiens)	1.00

----------
target: P2RY1 (Homo sapiens); construct: purchased Promega (in-house HiBiT-GPCR construct library, NanoBRET); experiment: NanoBRET screen HiBiT-P2RY1 in HEK293; type: binding; settings: P2RY1; tracer 1μM
Sequence (P47900 whole entry): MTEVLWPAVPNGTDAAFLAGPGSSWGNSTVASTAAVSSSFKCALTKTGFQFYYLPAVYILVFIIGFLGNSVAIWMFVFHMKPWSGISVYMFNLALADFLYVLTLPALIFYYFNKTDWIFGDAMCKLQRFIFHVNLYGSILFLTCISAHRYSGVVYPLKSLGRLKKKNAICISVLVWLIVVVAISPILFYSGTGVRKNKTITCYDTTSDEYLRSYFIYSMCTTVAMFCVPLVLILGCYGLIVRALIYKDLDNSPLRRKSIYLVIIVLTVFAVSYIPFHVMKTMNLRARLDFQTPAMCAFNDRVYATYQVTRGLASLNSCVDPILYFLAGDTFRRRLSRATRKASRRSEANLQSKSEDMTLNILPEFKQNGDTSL
Property: NanoBRET Fold Response; scope: individual molecules
Metric Name: NanoBRET Fold Response

Molecule	Target Of Assay	Numeric Value
Cc1cc2c(s1)Nc1ccccc1N=C2N1CCN(CCCNC(=O)CCOCCOCCOCCOCCNC(=O)CCc2ccc3n2[B-](F)(F)[N+]2=C(c4ccc[nH]4)C=CC2=C3)CC1	P2RY1 (Homo sapiens)	0.95
CCCn1c(=O)c2[nH]c(-c3ccc(OCC(=O)NCCNC(=O)CCOCCNC(=O)c4ccc(CNC(=O)CCc5ccc6n5[B-](F)(F)[N+]5=C(c7ccc[nH]7)C=CC5=C6)cc4)cc3)nc2n(CCC)c1=O	P2RY1 (Homo sapiens)	0.96
N#CN=C(NCCCOc1cccc(CN2CCCCC2)c1)NCCNC(=O)CCOCCOCCOCCOCCNC(=O)CCc1ccc2n1[B-](F)(F)[N+]1=C(c3ccc[nH]3)C=CC1=C2	P2RY1 (Homo sapiens)	1.02
CC(C)N(CC[C@H](c1ccccc1)c1cc(CCNC(=O)CCOCCOCCOCCOCCNC(=O)CCc2ccc3n2[B-](F)(F)[N+]2=C(c4ccc[nH]4)C=CC2=C3)ccc1O)C(C)C	P2RY1 (Homo sapiens)	1.00
Cc1nc2n(c(=O)c1CCN1CCC(c3noc4cc(F)ccc34)CC1)CCCC2OC(=O)NCCOCCOCCOCCOCCNC(=O)CCc1ccc2n1[B-](F)(F)[N+]1=C(c3ccc[nH]3)C=CC1=C2 (centres unmarked)	P2RY1 (Homo sapiens)	0.97

----------
target: PTGIR (Homo sapiens, UniProt P43119); construct: purchased Promega (in-house HiBiT-GPCR construct library, NanoBRET); test: NanoBRET screen HiBiT-PTGIR in HEK293; assay type: binding; settings: PTGIR; tracer 0.1μM
Sequence (P43119 whole entry): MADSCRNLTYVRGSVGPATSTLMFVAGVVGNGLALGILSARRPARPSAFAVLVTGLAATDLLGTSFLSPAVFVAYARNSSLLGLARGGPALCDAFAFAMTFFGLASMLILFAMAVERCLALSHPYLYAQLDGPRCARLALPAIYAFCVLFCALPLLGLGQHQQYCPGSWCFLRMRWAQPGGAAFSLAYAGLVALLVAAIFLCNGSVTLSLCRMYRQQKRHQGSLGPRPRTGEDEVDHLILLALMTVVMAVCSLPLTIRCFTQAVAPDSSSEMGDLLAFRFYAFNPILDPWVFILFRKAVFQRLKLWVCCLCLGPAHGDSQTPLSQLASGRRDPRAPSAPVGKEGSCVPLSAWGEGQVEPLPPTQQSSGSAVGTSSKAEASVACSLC

Molecule	Target Of Assay	NanoBRET Fold Response
COc1ccccc1N1CCN(CCCCN2C(=O)c3ccc(CNC(=O)CCOCCOCCOCCOCCNC(=O)CCc4ccc5n4[B-](F)(F)[N+]4=C(c6ccc[nH]6)C=CC4=C5)cc3C2=O)CC1 [NAN-190-2-NB590]	PTGIR (Homo sapiens, UniProt P43119)	0.99
O=C(CCOCCOCCOCCOCCNC(=O)CCc1ccc2n1[B-](F)(F)[N+]1=C(c3ccc[nH]3)C=CC1=C2)NCCCN1CCN(C2=Nc3ccccc3Oc3ccc(Cl)cc32)CC1 [Loxapine-a-2-NB590]	PTGIR (Homo sapiens, UniProt P43119)	0.99
CCCn1c(=O)c2[nH]c(-c3ccc(OCC(=O)NCCNC(=O)CCOCCNC(=O)c4ccc(CNC(=O)CCc5ccc6n5[B-](F)(F)[N+]5=C(c7ccc[nH]7)C=CC5=C6)cc4)cc3)nc2n(CCC)c1=O [XAC-3-NB590]	PTGIR (Homo sapiens, UniProt P43119)	0.99
O=C(CCc1ccc2n1[B-](F)(F)[N+]1=C(c3ccc[nH]3)C=CC1=C2)NCc1ccc(C(=O)NCCOCCC(=O)N[C@@H]2CC[C@@]3(O)[C@H]4Cc5ccc(O)c6c5[C@@]3(CCN4CC3CC3)[C@H]2O6)cc1 [Naltrexone-3-NB590]	PTGIR (Homo sapiens, UniProt P43119)	0.98
Cc1nc2n(c(=O)c1CCN1CCC(c3noc4cc(F)ccc34)CC1)CCCC2OC(=O)NCCOCCOCCOCCOCCNC(=O)CCc1ccc2n1[B-](F)(F)[N+]1=C(c3ccc[nH]3)C=CC1=C2 (stereo not shown) [Risperidone-2-NB590]	PTGIR (Homo sapiens, UniProt P43119)	1.02
N#CN=C(NCCCOc1cccc(CN2CCCCC2)c1)NCCNC(=O)CCOCCOCCOCCOCCNC(=O)CCc1ccc2n1[B-](F)(F)[N+]1=C(c3ccc[nH]3)C=CC1=C2 [Aminopotentidine-2-NB590]	PTGIR (Homo sapiens, UniProt P43119)	1.03
COc1ccccc1N1CCN(CCCCN2C(=O)c3ccc(CNC(=O)CCOCCNC(=O)c4ccc(CNC(=O)CCc5ccc6n5[B-](F)(F)[N+]5=C(c7ccc[nH]7)C=CC5=C6)cc4)cc3C2=O)CC1 [NAN-190-3-NB590]	PTGIR (Homo sapiens, UniProt P43119)	0.95

----------
Items are presented alongside their recorded NanoBRET Fold Response.
biological target: GRM7 (Homo sapiens, UniProt Q14831); construct: purchased Promega (in-house HiBiT-GPCR construct library, NanoBRET); assay: NanoBRET screen HiBiT-GRM7 in HEK293; assay type: binding; details: GRM7; tracer 1μM
Sequence (Q14831 35-915): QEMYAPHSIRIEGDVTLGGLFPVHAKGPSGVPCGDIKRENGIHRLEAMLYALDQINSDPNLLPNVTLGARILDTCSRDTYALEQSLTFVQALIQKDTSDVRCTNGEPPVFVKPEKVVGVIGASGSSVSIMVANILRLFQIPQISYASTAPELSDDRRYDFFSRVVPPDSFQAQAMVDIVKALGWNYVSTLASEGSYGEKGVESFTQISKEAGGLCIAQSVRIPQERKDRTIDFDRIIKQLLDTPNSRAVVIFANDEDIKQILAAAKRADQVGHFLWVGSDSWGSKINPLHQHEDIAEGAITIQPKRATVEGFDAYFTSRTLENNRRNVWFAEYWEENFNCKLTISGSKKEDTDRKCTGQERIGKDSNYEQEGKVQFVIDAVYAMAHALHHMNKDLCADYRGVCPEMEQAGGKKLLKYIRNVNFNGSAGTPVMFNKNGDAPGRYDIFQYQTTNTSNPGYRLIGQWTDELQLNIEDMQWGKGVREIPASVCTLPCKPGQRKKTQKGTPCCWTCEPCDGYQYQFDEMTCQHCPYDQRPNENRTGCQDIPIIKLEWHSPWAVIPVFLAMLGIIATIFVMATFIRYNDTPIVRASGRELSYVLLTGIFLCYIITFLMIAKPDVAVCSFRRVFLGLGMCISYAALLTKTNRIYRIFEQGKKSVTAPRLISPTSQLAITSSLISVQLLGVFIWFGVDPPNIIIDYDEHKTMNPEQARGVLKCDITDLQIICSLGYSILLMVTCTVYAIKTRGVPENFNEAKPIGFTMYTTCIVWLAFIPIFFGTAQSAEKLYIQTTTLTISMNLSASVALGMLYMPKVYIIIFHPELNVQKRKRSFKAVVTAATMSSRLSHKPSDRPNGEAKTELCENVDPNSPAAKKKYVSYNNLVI

Compound	Target Of Assay	NanoBRET Fold Response
CC(C)N(CC[C@H](c1ccccc1)c1cc(CCNC(=O)c2ccc(CNC(=O)CCc3ccc4n3[B-](F)(F)[N+]3=C(c5ccc[nH]5)C=CC3=C4)cc2)ccc1O)C(C)C	GRM7 (Homo sapiens, UniProt Q14831)	1.02
Cc1nc2n(c(=O)c1CCN1CCC(c3noc4cc(F)ccc34)CC1)CCCC2OC(=O)NCCOCCOCCOCCOCCNC(=O)CCc1ccc2n1[B-](F)(F)[N+]1=C(c3ccc[nH]3)C=CC1=C2 (centres unmarked)	GRM7 (Homo sapiens, UniProt Q14831)	1.00
O=C(CCOCCOCCOCCOCCNC(=O)CCc1ccc2n1[B-](F)(F)[N+]1=C(c3ccc[nH]3)C=CC1=C2)NCCCN1CCN(C2=Nc3ccccc3Oc3ccc(Cl)cc32)CC1	GRM7 (Homo sapiens, UniProt Q14831)	1.12
O=C(CCc1ccc2n1[B-](F)(F)[N+]1=C(c3ccc[nH]3)C=CC1=C2)NCCOCCOCCNC(=O)OCCOCCN1CCN(C2=Nc3ccccc3Sc3ccccc32)CC1	GRM7 (Homo sapiens, UniProt Q14831)	1.05
O=C(CCc1ccc2n1[B-](F)(F)[N+]1=C(c3ccc[nH]3)C=CC1=C2)NCc1ccc(C(=O)NCCOCCC(=O)N[C@@H]2CC[C@@]3(O)[C@H]4Cc5ccc(O)c6c5[C@@]3(CCN4CC3CC3)[C@H]2O6)cc1 [Naltrexone-3-NB590]	GRM7 (Homo sapiens, UniProt Q14831)	0.93

----------
target: MC5R (Homo sapiens, UniProt P33032); construct: purchased Promega (in-house HiBiT-GPCR construct library, NanoBRET); experiment: NanoBRET screen HiBiT-MC5R in HEK293; type: binding; details: MC5R; tracer 0.1μM
Sequence (P33032 whole entry): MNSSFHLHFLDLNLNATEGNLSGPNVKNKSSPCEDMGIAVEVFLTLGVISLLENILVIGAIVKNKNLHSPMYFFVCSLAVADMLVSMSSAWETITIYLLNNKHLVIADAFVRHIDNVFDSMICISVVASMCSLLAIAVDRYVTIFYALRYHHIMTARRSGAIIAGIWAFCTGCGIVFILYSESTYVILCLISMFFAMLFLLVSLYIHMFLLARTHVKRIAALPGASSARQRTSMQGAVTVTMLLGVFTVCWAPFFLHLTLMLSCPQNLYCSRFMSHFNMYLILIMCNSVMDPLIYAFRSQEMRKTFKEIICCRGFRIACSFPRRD
NanoBRET Fold Response listing for selected molecules.

Molecule	NanoBRET Fold Response
CCCn1c(=O)c2[nH]c(-c3ccc(OCC(=O)NCCNC(=O)CCOCCNC(=O)c4ccc(CNC(=O)CCc5ccc6n5[B-](F)(F)[N+]5=C(c7ccc[nH]7)C=CC5=C6)cc4)cc3)nc2n(CCC)c1=O [XAC-3-NB590]	1.02
Cc1nc2n(c(=O)c1CCN1CCC(c3noc4cc(F)ccc34)CC1)CCCC2OC(=O)NCCOCCOCCOCCOCCNC(=O)CCc1ccc2n1[B-](F)(F)[N+]1=C(c3ccc[nH]3)C=CC1=C2 (stereo not drawn) [Risperidone-2-NB590]	1.02
O=C(CCOCCOCCOCCOCCNC(=O)CCc1ccc2n1[B-](F)(F)[N+]1=C(c3ccc[nH]3)C=CC1=C2)NCCCN1CCN(C2=Nc3ccccc3Oc3ccc(Cl)cc32)CC1 [Loxapine-a-2-NB590]	1.04
Cc1cc2c(s1)Nc1ccccc1N=C2N1CCN(CCCNC(=O)CCOCCOCCOCCOCCNC(=O)CCc2ccc3n2[B-](F)(F)[N+]2=C(c4ccc[nH]4)C=CC2=C3)CC1 [Olanzapine-a-2-NB590]	0.99
N#CN=C(NCCCOc1cccc(CN2CCCCC2)c1)NCCNC(=O)CCOCCOCCOCCOCCNC(=O)CCc1ccc2n1[B-](F)(F)[N+]1=C(c3ccc[nH]3)C=CC1=C2 [Aminopotentidine-2-NB590]	1.01
CC(C)N(CC[C@H](c1ccccc1)c1cc(CCNC(=O)c2ccc(CNC(=O)CCc3ccc4n3[B-](F)(F)[N+]3=C(c5ccc[nH]5)C=CC3=C4)cc2)ccc1O)C(C)C [Tolterodine-BZ-NB590]	1.02
COc1ccccc1N1CCN(CCCCN2C(=O)c3ccc(CNC(=O)CCOCCOCCOCCOCCNC(=O)CCc4ccc5n4[B-](F)(F)[N+]4=C(c6ccc[nH]6)C=CC4=C5)cc3C2=O)CC1 [NAN-190-2-NB590]	0.98
COc1ccccc1N1CCN(CCCCN2C(=O)c3ccc(CNC(=O)CCOCCNC(=O)c4ccc(CNC(=O)CCc5ccc6n5[B-](F)(F)[N+]5=C(c7ccc[nH]7)C=CC5=C6)cc4)cc3C2=O)CC1 [NAN-190-3-NB590]	0.97
O=C(CCc1ccc2n1[B-](F)(F)[N+]1=C(c3ccc[nH]3)C=CC1=C2)NCCOCCOCCNC(=O)OCCOCCN1CCN(C2=Nc3ccccc3Sc3ccccc32)CC1 [Quetiapine-a-2-NB590]	0.97
